Source of measurements: ChEMBL document CHEMBL1133317

Data export: pIC50 values recorded with M-phase inducer phosphatase 2 (Homo sapiens).
pIC50 is defined as minus the log10 of a concentration measured in mol/L.

Worked cases, answers included:
COc1cc(/C=C/C(=O)N2Cc3c(cc(I)c(OCc4ccc(C(F)(F)F)cc4)c3I)C[C@H]2C(=O)O)cc(OC)c1OC = 4.24
O=C(O)[C@@H]1Cc2cc(I)c(OCc3c(Cl)cccc3Cl)c(I)c2CN1C(=O)/C=C/c1ccc(Cl)c(Cl)c1 = 4.26
O=C(O)[C@@H]1Cc2cc(I)c(OCc3ccc(Cl)cc3Cl)c(I)c2CN1C(=O)/C=C/c1ccc(Br)cc1 = 4.64
O=C(O)[C@@H]1Cc2cc(I)c(OCc3cccc(C(F)(F)F)c3)c(I)c2CN1C(=O)/C=C/c1ccccc1F = 4.46
Cc1ccc(/C=C/C(=O)N2Cc3c(cc(I)c(OCc4cccc(C(F)(F)F)c4)c3I)C[C@H]2C(=O)O)cc1 = 4.52
O=C(O)[C@@H]1Cc2cc(I)c(OCc3cccc(C(F)(F)F)c3)c(I)c2CN1C(=O)/C=C/c1ccc(Cl)c(Cl)c1 = 4.12

I am curious: what pIC50 value has been reported for O=C(O)[C@@H]1Cc2cc(I)c(OCc3cccc(C(F)(F)F)c3)c(I)c2CN1C(=O)/C=C/c1cccc(C(F)(F)F)c1 ? 4.30

Please do the same for Cc1ccc(/C=C/C(=O)N2Cc3c(cc(I)c(OCc4ccc(Cl)cc4Cl)c3I)C[C@H]2C(=O)O)cc1 as well. 4.57

Please do the same for O=C(O)[C@@H]1Cc2cc(I)c(OCc3ccccc3F)c(I)c2CN1C(=O)/C=C/c1cccc(Cl)c1 as well. 4.22

Please do the same for O=C(O)[C@@H]1Cc2cc(I)c(OCc3cccc(C(F)(F)F)c3)c(I)c2CN1C(=O)/C=C/c1cccc(F)c1 as well. 4.35

Please do the same for O=C(O)[C@@H]1Cc2cc(I)c(OCCCCl)c(I)c2CN1C(=O)/C=C/c1ccccc1Br as well. 4.48

###

# target-or-system: M-phase inducer phosphatase 2 (Homo sapiens)
readout: pIC50
pIC50 is defined as minus the log10 of a concentration measured in mol/L.

Worked cases, answers included:
COc1cccc(COc2c(I)cc3c(c2I)CN(C(=O)/C=C/c2ccc([N+](=O)[O-])cc2)[C@H](C(=O)O)C3)c1 = 4.23
O=C(O)[C@@H]1Cc2cc(I)c(OCc3ccc(Cl)cc3Cl)c(I)c2CN1C(=O)/C=C/c1cccc(C(F)(F)F)c1 = 4.82
O=C(O)[C@@H]1Cc2cc(I)c(OCc3cccc(C(F)(F)F)c3)c(I)c2CN1C(=O)/C=C/c1ccc2c(c1)OCO2 = 4.18

Now, please, on to the next compound.
I am curious: what pIC50 value has been reported for COc1cccc(COc2c(I)cc3c(c2I)CN(C(=O)/C=C/c2ccc4c(c2)OCO4)[C@H](C(=O)O)C3)c1 ? 4.24

###

# target-or-system: M-phase inducer phosphatase 2 (Homo sapiens) (UniProt P30305)
# test-details: Inhibitory activity against Cell division cycle 25B at 100 uM
Response key: yes means inhibition >= 20%; no means inhibition < 20%.

C/C(=C\c1ccccc1)C(=O)N1Cc2c(cc(I)c(OCC(=O)OCc3ccccc3)c2I)C[C@H]1C(=O)O = yes
COc1cccc(COc2c(I)cc3c(c2I)CN(C(=O)/C=C/c2cccc(F)c2)[C@H](C(=O)O)C3)c1 = yes
N#C/C(=C\c1ccccc1)C(=O)N1Cc2c(cc(I)c(OCC(=O)OCc3ccccc3)c2I)C[C@H]1C(=O)O = yes
O=C(O)[C@@H]1Cc2cc(I)c(OCc3ccc(Cl)cc3Cl)c(I)c2CN1C(=O)/C=C/c1ccccc1F = yes
COc1cccc(COc2c(I)cc3c(c2I)CN(C(=O)/C=C/c2cc(OC)c(OC)c(OC)c2)[C@H](C(=O)O)C3)c1 = yes
N#C/C(=C\c1ccccc1)C(=O)N1Cc2c(cc(I)c(O)c2I)C[C@H]1C(=O)O = no

Switching to the query record.
Form field: inhibition at least 20%? Entry: N#C/C(=C\c1ccccc1)C(=O)N1Cc2c(cc(I)c(OCCCCl)c2I)C[C@H]1C(=O)O no

###

Protein target, amino acids: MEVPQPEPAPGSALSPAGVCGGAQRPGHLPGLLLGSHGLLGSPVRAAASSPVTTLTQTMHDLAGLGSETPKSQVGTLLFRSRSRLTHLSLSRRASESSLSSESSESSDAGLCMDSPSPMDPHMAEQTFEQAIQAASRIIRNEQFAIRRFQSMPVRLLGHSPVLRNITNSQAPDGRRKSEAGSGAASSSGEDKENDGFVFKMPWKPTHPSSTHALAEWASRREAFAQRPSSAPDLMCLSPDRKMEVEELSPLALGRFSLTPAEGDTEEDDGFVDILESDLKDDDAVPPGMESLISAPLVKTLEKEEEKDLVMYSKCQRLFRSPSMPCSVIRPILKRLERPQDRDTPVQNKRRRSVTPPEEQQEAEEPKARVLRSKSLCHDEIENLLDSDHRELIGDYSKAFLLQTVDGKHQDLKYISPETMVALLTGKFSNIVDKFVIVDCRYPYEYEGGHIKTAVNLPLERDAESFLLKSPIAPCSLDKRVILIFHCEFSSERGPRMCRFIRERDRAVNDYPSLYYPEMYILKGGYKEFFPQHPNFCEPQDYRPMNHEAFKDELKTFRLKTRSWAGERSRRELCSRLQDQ
// reported pIC50 for each item listed
pIC50 is defined as minus the log10 of a concentration measured in mol/L.

I am curious: what pIC50 value has been reported for O=C(O)[C@@H]1Cc2cc(I)c(OCc3ccccc3F)c(I)c2CN1C(=O)CCc1ccccc1 ? 4.10

Please do the same for O=C(O)[C@@H]1Cc2cc(I)c(OCc3ccc(Cl)cc3Cl)c(I)c2CN1C(=O)/C=C/c1ccc(Cl)cc1 as well. 4.46

Please do the same for O=C(O)[C@@H]1Cc2cc(I)c(OCc3ccc(Cl)cc3Cl)c(I)c2CN1C(=O)/C=C/c1ccc([N+](=O)[O-])cc1 as well. 4.35

Please do the same for O=C(O)[C@@H]1Cc2cc(I)c(OCc3ccc(C(F)(F)F)cc3)c(I)c2CN1C(=O)/C=C/c1cccc(F)c1 as well. 4.52

Please do the same for O=C(O)[C@@H]1Cc2cc(I)c(OCc3cccc(C(F)(F)F)c3)c(I)c2CN1C(=O)/C=C/c1ccc([N+](=O)[O-])cc1 as well. 4.30

Please do the same for O=C(COc1c(I)cc2c(c1I)CN(C(=O)/C=C/c1ccc(Br)cc1)[C@H](C(=O)O)C2)OCc1ccccc1 as well. 4.05

Please do the same for Cc1ccc(/C=C/C(=O)N2Cc3c(cc(I)c(OCc4ccc(C(F)(F)F)cc4)c3I)C[C@H]2C(=O)O)cc1 as well. 4.46
